target.entity: Follistatin-related protein 3 (Homo sapiens) (UniProt O95633)
Sequence (O95633 whole entry, looked up): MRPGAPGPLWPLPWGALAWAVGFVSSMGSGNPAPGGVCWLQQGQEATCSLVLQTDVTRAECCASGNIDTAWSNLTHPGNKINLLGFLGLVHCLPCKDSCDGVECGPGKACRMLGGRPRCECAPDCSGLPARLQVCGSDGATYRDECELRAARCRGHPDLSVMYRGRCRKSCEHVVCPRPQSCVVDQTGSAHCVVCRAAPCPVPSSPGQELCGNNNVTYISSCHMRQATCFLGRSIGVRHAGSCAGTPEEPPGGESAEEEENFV
experiment.description: FSTL3 binders on small-molecule microarrays, primary screen, biochemical, small-molecule microarray, 635 nm fluorescence (AID 1105);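 further: score merges emission near 667 nm and signal to noise per printed spot across three slides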
settings: FSTL3 binding, higher = more signal
Lab note: compare composite z-score against 0.2. Equal or greater, write True. Smaller, write False.

Query string: Has "COc1ccc([Si](C)(C)[C@H]2[C@H](CC(=O)N3CCC[C@H]3CO)O[C@@]3(C(=O)N(C)c4c(Br)cc(C)cc43)[C@@H]2C)cc1" a recorded composite z-score greater than or equal to 0.2?
Result string: True

Query string: Check the entry "C=CCOC(=O)[C@H]1[C@@H]2C(=O)O[C@@H](c3ccccc3)[C@@H](c3ccccc3)N2[C@@H](c2ccc(OCCOC(=O)[C@@H]3C[C@@H]4C(=O)N[C@@H](Cc5ccccc5)C(=O)N4[C@@H]3c3ccc(O)cc3)cc2)[C@]12C(=O)Nc1ccc(I)cc12" : does composite z-score equal or exceed 0.2?
Result string: True

Query string: Given "COC(=O)[C@@]1(Cc2ccc(F)cc2)[C@H]2c3cc(C(=O)N4CCCC4)n(Cc4ccc(OC(F)(F)F)cc4)c3C[C@H]2CN1C(=O)c1ccccc1" , state whether its composite z-score is at least 0.2.
Result string: False

Query string: Assess whether reported composite z-score for "CC(C)[Si]1(C(C)C)OCc2cc(-c3ccc(-c4ccc(Cl)c(Cl)c4)o3)nc(-c3ccc(Oc4ccccc4)cc3)c21" sits at 0.2 or higher.
Result string: False

Query string: Exam item: decide whether the reported composite z-score for "COc1c(C)cc(-c2nc(-c3ccccc3)c3c(c2C)CO[Si]3(C(C)C)C(C)C)cc1C" is at least 0.2.
Result string: True

Query string: Does the molecule "O=C1N(Cc2ccccc2)c2ccccc2C[C@@]12N=C(c1ccc(OCCCO)cc1)O[C@H]2c1ccccc1" have recorded composite z-score that is 0.2 or more?
Result string: True

Query string: Answer whether composite z-score of "C=CCNC(=O)[C@@H]1[C@H]2C(=O)O[C@H](c3ccccc3)[C@H](c3ccccc3)N2[C@H](c2ccc(O)cc2)[C@@]12C(=O)N(C(=O)OCCOC)c1ccc(C#CCC(C(=O)OC)C(=O)OC)cc12" is greater than or equal to 0.2.
Result string: True

Query string: Is composite z-score at least 0.2? Consider "Cc1ccc(S(=O)(=O)N2[C@@H](c3ccccc3)C(C(=O)O)=C[C@H]2C(C)(C)C)cc1"
Result string: True

Query string: State whether the measured composite z-score reaches 0.2, counting equality as reaching it, for "COc1ccc([Si](C)(C)[C@H]2[C@H](CC(=O)N(CCO)Cc3ccccc3)O[C@@]3(C(=O)N(c4ccccc4)c4ccccc43)[C@@H]2C)cc1"
Result string: True

Query string: Hi, just wondering whether "COC(=O)[C@@]1(Cc2ccc(F)cc2)[C@H]2c3cc(C(=O)N4CCCC4)n(CCc4c[nH]c5cc(F)ccc45)c3C[C@H]2CN1C(=O)c1ccccc1" shows composite z-score of 0.2 or higher.
Result string: True

Query string: Textbook exercise: given the entry "COc1cccc(C)c1NC(=O)O[C@H]1[C@H](OC(=O)Nc2ccc3c(c2)OCO3)[C@H](OC(=O)Nc2ccc3c(c2)OCO3)[C@@H](OC)O[C@@H]1CO" , state whether its composite z-score is greater than or equal to 0.2.
Result string: True

Query string: # bool: composite z-score of COc1cc2c(cc1O)C(C)N(Cc1sc3ccccc3c1Cl)CC2 (stereo not drawn) >= 0.2
Result string: False

Query string: Would you say "CC(C)(C)OC(=O)CC[C@]1(C(=O)N2CCOCC2)COC(c2ccc(OCCCO)cc2)=N1" shows composite z-score at minimum 0.2?
Result string: False

Query string: Could you please find out whether COC(=O)[C@H](Cc1ccccc1)N1CC(C)(OC)O[C@@H](Cc2ccccc2)[C@H]1/C=C/C1CC1 (stereo partly drawn) has composite z-score that meets 0.2 or exceeds it?
Result string: False

Query string: Hello, I need to know if "COC(=O)[C@@]1(Cc2ccc(F)cc2)[C@@H]2C(=CC(=O)[C@H]2CC(=O)C(=O)N2CCCC2)CN1C(=O)c1ccccc1" has measured composite z-score not below 0.2. Thanks!
Result string: True

Query string: Has "COC(=O)C(CC#Cc1ccc2c(c1)[C@]1(C(=O)N2)[C@H](C(=O)NC[C@H](O)c2ccccc2)[C@H]2C(=O)O[C@H](c3ccccc3)[C@H](c3ccccc3)N2[C@@H]1c1ccc(O)cc1)C(=O)OC" a recorded composite z-score greater than or equal to 0.2?
Result string: False

Query string: Decide: is the reported value of composite z-score for CN1C(=O)C2C=CC(C(O)c3cccs3)N(N(c3ccccc3)c3ccccc3)C2C1=O (stereo not drawn) equal to or greater than 0.2?
Result string: True

Query string: Kindly determine if composite z-score recorded for "COCCOC(=O)N1C(=O)[C@@]2(c3cc(C#CC4=CCCCC4)ccc31)[C@H](c1ccc(O)cc1)N1[C@H](c3ccccc3)[C@H](c3ccccc3)OC(=O)[C@H]1[C@@H]2C(=O)N1CCc2cc(OC)c(OC)cc2C1" is above or exactly 0.2.
Result string: True

Query string: Threshold query (composite z-score >= 0.2) on "[N-]=[N+]=NCc1ccccc1[C@H]1OC(c2ccc(OCCCO)cc2)=N[C@@]1(Cc1ccccc1N=[N+]=[N-])C(=O)N1CCOCC1"
Result string: True

Query string: Could you verify whether the entry "COCCOC(=O)N1C(=O)[C@@]2(c3ccccc31)[C@H](C(=O)Nc1nc3ccccc3s1)[C@H]1C(=O)O[C@H](c3ccccc3)[C@H](c3ccccc3)N1[C@@H]2c1ccccc1OCCO" shows composite z-score of no less than 0.2?
Result string: True

Query string: Would you say "C=C(CC1([C@@H](NP(=O)(c2ccccc2)c2ccccc2)[C@H]2C[C@@H]2CCCC)CC1)c1cccc(OC)c1" shows composite z-score at minimum 0.2?
Result string: True

Query string: Please tell me: is the molecule CCCC1(C(=O)OC)C=C2C(=C(C(C)C)C(=O)C2C)CN1 (stereo not drawn) at or over 0.2 in terms of composite z-score?
Result string: False

Query string: In plain terms: is recorded composite z-score at least 0.2 for "CC(C)(C)OC(=O)N1[C@@H](C=C(Br)Br)COC1(C)C" ?
Result string: False
